Recorded values, source ChEMBL document CHEMBL5154927.

- test details: Selectivity index, ratio of IC50 for human MCF-10A cells to IC50 for human MCF-7 cells
- Assay type: toxicity
- measurement context: MCF-10A cells and MCF-7 cells, read-out: Ratio IC50
Cut-off 90 on selectivity ratio, inclusive. At or above means met; below means not met.

Please review the entries below; each comes with its answer.
{"compound": "O=S(=O)(Oc1ccc(Cl)cc1)C1CC2OC1C(c1ccc([Se]c3ccccc3)cc1)=C2c1ccc(O)cc1 (configuration not stated)", "label": "met"}
{"compound": "O=S(=O)(Oc1cccc(C(F)(F)F)c1)C1CC2OC1C(c1ccc([Se]c3ccccc3)cc1)=C2c1ccc(O)cc1 (configuration not stated)", "label": "not met"}
{"compound": "O=S(=O)(Oc1ccc(Cl)cc1)C1CC2OC1C(c1ccc(O)cc1)=C2c1ccc([Se]c2ccccc2)cc1 (configuration not stated)", "label": "not met"}
{"compound": "O=S(=O)(Oc1cccc(O)c1)C1CC2OC1C(c1ccc(O)cc1)=C2c1ccc([Se]c2ccccc2)cc1 (configuration not stated)", "label": "met"}
{"compound": "COc1ccc(OS(=O)(=O)C2CC3OC2C(c2ccc([Se]c4ccccc4)cc2)=C3c2ccc(O)cc2)cc1 (configuration not stated)", "label": "met"}

Continue with the compound presented below.
In: Has Cc1ccc(OS(=O)(=O)C2CC3OC2C(c2ccc([Se]c4ccccc4)cc2)=C3c2ccc(O)cc2)cc1 (configuration not stated) a recorded selectivity ratio greater than or equal to 90?
Out: not met

###

- System: MDA-MB-231
- test details: cells
- measurement context: Homo sapiens, MDA-MB-231, 72 h
- Description: Antiproliferative activity against human MDA-MB-231 cells assessed as reduction in cell viability measured after 72 hrs by Cell Counting Kit-8 assay
So basically, if IC50 comes in under 20 µM it's label 1, and if it's 20 µM or more it's label 0.

These solved cases illustrate the format of a correct answer.
{"molecule": "O=S(=O)(Oc1ccc([Se]c2ccccc2)cc1)C1CC2OC1C(c1ccc(O)cc1)=C2c1ccc(O)cc1 (stereo unspecified)", "target": "MDA-MB-231", "label": "label 0"}
{"molecule": "O=S(=O)(Oc1cccc(O)c1)C1CC2OC1C(c1ccc(O)cc1)=C2c1ccc([Se]c2ccccc2)cc1 (stereo unspecified)", "target": "MDA-MB-231", "label": "label 1"}
{"molecule": "O=S(=O)(Oc1ccc(Cl)cc1)C1CC2OC1C(c1ccc(O)cc1)=C2c1ccc([Se]c2ccccc2)cc1 (stereo unspecified)", "target": "MDA-MB-231", "label": "label 1"}
{"molecule": "O=S(=O)(Oc1ccc(C(F)(F)F)cc1)C1CC2OC1C(c1ccc(O)cc1)=C2c1ccc([Se]c2ccccc2)cc1 (stereo unspecified)", "target": "MDA-MB-231", "label": "label 0"}
{"molecule": "O=S(=O)(Oc1ccc(Br)cc1)C1CC2OC1C(c1ccc(O)cc1)=C2c1ccc([Se]c2ccccc2)cc1 (stereo unspecified)", "target": "MDA-MB-231", "label": "label 1"}

In: Does the reported IC50 of the following molecule sit strictly below 20 µM? O=S(=O)(Oc1ccc(C(F)(F)F)cc1)C1CC2OC1C(c1ccc([Se]c3ccccc3)cc1)=C2c1ccc(O)cc1 (stereo unspecified)
Out: label 0

###

- Tested on: MDA-MB-231
- test details: cells
- measurement context: Homo sapiens, MDA-MB-231, 72 h
property name: IC50 (µM)
Quick reminder: number only, in µM, skip the unit.

{"compound": "O=S(=O)(Oc1cccc(Cl)c1)C1CC2OC1C(c1ccc([Se]c3ccccc3)cc1)=C2c1ccc(O)cc1 (centres undefined)", "IC50, µM": 41.9}

Okay, next one:
In: Which IC50 is reported with MDA-MB-231 for this entry: O=S(=O)(Oc1ccccc1)C1CC2OC1C(c1ccc(O)cc1)=C2c1ccc(O)cc1 (centres undefined) ?
Out: 32.3
